Molecular target: StGyrA-CTD R712A R712A (Salmonella enterica serovar Typhi CT18)
Assay: fluorescence binding
quantity.kind: pKd
Field pKd (float): negative decimal logarithm of the concentration in molar.

**Q:** # get_value(readout='pKd', item= TAAAGTCTAGAGACACGCATAGTCAATGACGGAGTTA (double strand) [FAM-37 bp DNA] )
**A:** 6.64

---

Biological target: StGyrA-CTD R716A R716A (Salmonella enterica serovar Typhi CT18) (UniProt A0A1U7FVV6)
Test: fluorescence binding
quantity.kind: Kd (nM)
Express your answer in nM, writing the number without its unit.

**Q:** Consider the sequence TAAAGTCTAGAGACACGCATAGTCAATGACGGAGTTA (double strand) [FAM-37 bp DNA] and give its measured Kd.
**A:** 277
